System name: T1, human IL4 (human, UniProt P05112 25-153, biotinylated in the SPR and competition assays (sites not given))
T1 construct: Peprotech #200-04, mature protein produced in E. coli; also called hIL4; Interleukin 4
T1 sequence: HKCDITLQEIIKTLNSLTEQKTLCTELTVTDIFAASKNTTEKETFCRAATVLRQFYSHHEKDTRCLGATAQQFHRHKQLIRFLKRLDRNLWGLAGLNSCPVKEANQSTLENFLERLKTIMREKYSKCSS
Assay details: Luminex competition, 67 pM biotin-IL4 binding to IL4RA-Fc beads
Method: For biotinylation of IL4, recombinant human IL4 (Peprotech) was biotinylated at a 4:1 ratio using EZ-Link NHS-LC-Biotin (Pierce, #21336) for 2 hours at RT. The protein was dialyzed in PBS overnight to remove excess biotinylation reagent. […] AR protein inhibition of IL4 binding to IL4 RA was assessed using IL4 RA-Fc (R&D Systems), comprising the Gly24-His232 which represents the ECD (SEQ ID NO: 5) fused to a human IgGl-Fc and therefor a disulfide linked homodimer. […]
Measured endpoint: IC50
Returns: string containing the numeric result and its unit.

Please review the following examples before continuing.
Dear colleague, please send me the reported IC50 for C06_54C2 (designed binder, ankyrin repeat protein; His-tagged, IMAC-purified) DLGKKLLEAARAGQDDEVRILMANGADVNATDDWGDTLLHLAATDGHLEIVEVLLKNGADVNAIDAMGMTPLHLAAVYGYLEIVEVLLKNGADVNAMDFSGFTPLHLTAFSGHLEIVEVLLKYGADVNAQDKFGKTAFDISIDNGNEDLAEILQKLN when you can.
0.0168 nM

Give the measured IC50 for C06_19F8 (designed binder, ankyrin repeat protein; His-tagged, IMAC-purified) DLGKKLLEAARAGQDDEVRILMANGADVNATDDWGDTLLHLAATDGHLEIVEVLLKNGADVNASDSQGLTPLHLAAYYGHLEIVEVLLKYGADVNANDHHGITPLHLAAFAGHLEIVEVLLKYGADVNAQDKFGKTAFDISIDNGNEDLAEILQKLN
0.0176 nM

Specify measured IC50 for C06_19C3 (designed binder, ankyrin repeat protein; His-tagged, IMAC-purified) DLGKKLLEAARAGQDDEVRILMANGADVNATDDWGDTLLHLAATDGHLEIVEVLLKNGADVNAIDAMGMTPLHLAAVYGYLEIVEVLLKNGADVNAMDFSGFTPLHLAAFSGHLEIVEVLLKYGADVNAQDKFGKTAFDISIDNGNEDLAEILQKLN .
0.0063 nM

# next binder below
Item C06_20B8 (designed binder, ankyrin repeat protein; His-tagged, IMAC-purified) DLGKKLLEAASAGQDDEVHILMANGADVNAVDHDGFTPLHLAAADGHLEIVEVLLKHGADVNADDNFGWTPLHLAAFFGHLEIVEVLLKHGADVNAKDQTGLTPLHLAAVDGHLEIVEVLLKHGADVNAQDKFGKTAFDISIDNGNEDLAEILQKLN : provide IC50
0.0205 nM
